Counter-ions that a name gives are not always drawn.
measured.property: melting point

Study these solved cases before continuing.
NS(=O)(=O)c1cc2c(cc1Cl)N=C(NC(=O)CCCCCO[N+](=O)[O-])NS2(=O)=O (as salt: hydrochloride) [Example 5b]
177 to 179 °C
NS(=O)(=O)c1cc2c(cc1Cl)NC(CCCC(=O)NC[C@@H](CO[N+](=O)[O-])O[N+](=O)[O-])=NS2(=O)=O [Example 21b]
140 °C (dec.)
NS(=O)(=O)c1cc2c(cc1Cl)NCN(Cc1cc(CO[N+](=O)[O-])cc(OCCCCBr)c1)S2(=O)=O [Example 68d]
80 °C
CC(CO[N+](=O)[O-])(CO[N+](=O)[O-])C(=O)N1CCC2(CC1)Nc1cc(Cl)c(S(N)(=O)=O)cc1S(=O)(=O)N2 [Example 23]
142 to 145 °C
Cc1c(C2Nc3cc(Cl)c(S(N)(=O)=O)cc3S(=O)(=O)N2)no[n+]1[O-] (stereo not shown) [Example 9b]
242 to 243 °C (dec.)
CN(CC1Nc2cc(Cl)c(S(N)(=O)=O)cc2S(=O)(=O)N1)C(=O)CN(CCO[N+](=O)[O-])CCO[N+](=O)[O-] (stereo not shown)
183 to 185 °C (dec.)

Exam item: I have this compound here, NS(=O)(=O)c1cc2c(cc1C(F)(F)F)NC(CCCO[N+](=O)[O-])NS2(=O)=O (stereo not shown) [Example 3d] , and I need its recorded melting point.
Marked response: 165 °C (dec.)

Exam item: I have this compound here, NS(=O)(=O)c1cc2c(cc1Cl)NCN(CCO)S2(=O)=O [Example 32b] , and I need its recorded melting point.
Marked response: 226 to 228 °C

Exam item: I have this compound here, NS(=O)(=O)c1cc2c(cc1Cl)NCN(CCCO)S2(=O)=O [Example 59] , and I need its recorded melting point.
Marked response: 160 °C

Exam item: I have this compound here, NS(=O)(=O)c1cc2c(cc1Cl)NC(CCCCCO[N+](=O)[O-])NS2(=O)=O (stereo not shown) [Example 1c] , and I need its recorded melting point.
Marked response: 158 to 161 °C

Exam item: I have this compound here, NS(=O)(=O)c1cc2c(cc1C(F)(F)F)NC(CCC(CO[N+](=O)[O-])O[N+](=O)[O-])NS2(=O)=O (stereo not shown) [Example 7] , and I need its recorded melting point.
Marked response: 157 to 160 °C (dec.)

Exam item: I have this compound here, NS(=O)(=O)c1cc2c(cc1Cl)NC(Cc1ccc(CO[N+](=O)[O-])cc1)=NS2(=O)=O [Example 29d] , and I need its recorded melting point.
Marked response: > 260 °C

Exam item: I have this compound here, NS(=O)(=O)c1cc2c(cc1Cl)NC(CCCO[N+](=O)[O-])NS2(=O)=O (stereo not shown) [Example 8] , and I need its recorded melting point.
Marked response: 178 to 181 °C

---

measured.property: melting point

Exam item: I have this molecule here, `NS(=O)(=O)c1cc2c(cc1Cl)NCN(CCCCO)S2(=O)=O` , and I need its recorded melting point.
Marked response: 96 to 99 °C

Exam item: I have this molecule here, NS(=O)(=O)c1cc2c(cc1Cl)NC(CCCCO)NS2(=O)=O (stereo not shown) , and I need its recorded melting point.
Marked response: 202 to 211 °C

Exam item: I have this molecule here, NS(=O)(=O)c1cc2c(cc1Cl)NCN(CCCO[N+](=O)[O-])S2(=O)=O [Example 35b] , and I need its recorded melting point.
Marked response: 148 to 151 °C (dec.)

Exam item: I have this molecule here, NS(=O)(=O)c1cc2c(cc1Cl)NC(CCc1cc(CO)cc(CO)c1)NS2(=O)=O (stereo not shown) [Example 79d] , and I need its recorded melting point.
Marked response: 218 °C

Exam item: I have this molecule here, NS(=O)(=O)c1cc2c(cc1Cl)NCN(CCCC(CO[N+](=O)[O-])O[N+](=O)[O-])S2(=O)=O (stereo not shown) [Example 43b] , and I need its recorded melting point.
Marked response: 49 to 53 °C

Exam item: I have this molecule here, NS(=O)(=O)c1cc2c(cc1C(F)(F)F)NC(CCCCCO[N+](=O)[O-])NS2(=O)=O (stereo not shown) , and I need its recorded melting point.
Marked response: 171 to 189 °C

Exam item: I have this molecule here, NS(=O)(=O)c1cc2c(cc1Cl)NC(CCCCCO)NS2(=O)=O (stereo not shown) [Example 24c] , and I need its recorded melting point.
Marked response: 190 °C
